Tested on: H3N2 subtype
Experiment: Antiviral activity against Influenza A virus A/HK/7/87(H3N2) infected in MDCK cells assessed as reduction in virus-induced cytopathic effect after 3 days by microscopic method
Type: functional, organism-based
Settings: A/Hong Kong/7/1987(H3N2), 72 h
Measurement Name: EC50 (µM)
Your answer should be a plain number; it is taken to be in µM.

Input line: For CCCCSC1=C(SCCCC)C(=O)N(CCOCCOCCOCCOCc2cn(C3C(=O)N[C@@H]4Cc5ccc(c(Cl)c5)Oc5cc6cc(c5O)Oc5ccc(cc5Cl)[C@@H](O[C@@H]5O[C@H](CO)[C@@H](O)[C@H](O)[C@H]5NC(C)=O)[C@H]5NC(=O)[C@H](NC(O)[C@@H]6NC(=O)[C@@H](NC4=O)c4cc(O)cc(c4)Oc4cc3ccc4O)c3ccc(O)c(c3)-c3c(O)cc(O)cc3[C@H](C(=O)O)NC5=O)nn2)C1=O (some centres not stated) , what is its reported EC50?
Output line: 5.3

Further cases:
Input line: For CCCCCCCCSC1=C(SCCCCCCCC)C(=O)N(Cc2cn(C3C(=O)N[C@@H]4Cc5ccc(c(Cl)c5)Oc5cc6cc(c5O)Oc5ccc(cc5Cl)[C@@H](O[C@@H]5O[C@H](CO)[C@@H](O)[C@H](O)[C@H]5NC(C)=O)[C@H]5NC(=O)[C@H](NC(O)[C@@H]6NC(=O)[C@@H](NC4=O)c4cc(O)cc(c4)Oc4cc3ccc4O)c3ccc(O)c(c3)-c3c(O)cc(O)cc3[C@H](C(=O)O)NC5=O)nn2)C1=O (some centres not stated) , what is its reported EC50?
Output line: 8.9
